Ref: patent US12642270B2

assay: Log P by HPLC on reversed phase columns (EEC directive 79/831 Annex V.A8); type: physicochemical; conditions: LogP method [a]; compounds of formula (I), Table 1.1
measure: LogP

[Q] Would you kindly share the measured LogP for CCOC(=O)C(NC(=O)c1sc(Cl)c(Cl)c1Br)C1CC1 (stereo not shown) ?
[A] 4.35^[a]

[Q] Would you kindly share the measured LogP for CCOC(=O)CCNC(=O)c1sc(C)c(Br)c1F ?
[A] 2.78^[a]

[Q] Would you kindly share the measured LogP for CCOC(=O)C(CC(C)C)NC(=O)c1sc(Br)c(Cl)c1F (stereo not shown) ?
[A] 4.64^[a]

[Q] Would you kindly share the measured LogP for CCOC(=O)C1(NC(=O)c2sc(Cl)c(Cl)c2C(F)F)CC1 ?
[A] 3.17^[a]

[Q] Would you kindly share the measured LogP for CCOC(=O)C(NC(=O)c1cc(Br)c(Cl)s1)C(C)C (stereo not shown) ?
[A] 3.87^[a]

[Q] Would you kindly share the measured LogP for COC(=O)CNC(=S)c1sc(Cl)c(Br)c1Cl ?
[A] 4.08^[a]

[Q] Would you kindly share the measured LogP for O=C(NC1(C(=O)NC2(C(=O)O)CC2)CC1)c1cc(I)c(I)s1 ?
[A] 1.53^[a]

[Q] Would you kindly share the measured LogP for CCOC(=O)C1(NC(=O)c2sc(Br)c(C#N)c2Br)CC1 ?
[A] 2.71^[a]

[Q] Would you kindly share the measured LogP for COC(=O)C(NC(=O)c1sc(C(F)F)c(Br)c1Br)C1CC1 (stereo not shown) ?
[A] 3.46^[a]

[Q] Would you kindly share the measured LogP for COC(=O)CNC(=S)c1sc(Cl)c(Cl)c1I ?
[A] 4.12^[a]

[Q] Would you kindly share the measured LogP for O=C(NC1(C(=O)O)COC1)c1sc(Br)c(Br)c1F ?
[A] 1.98^[a]

[Q] Would you kindly share the measured LogP for COC(=O)CNC(=O)c1sc(Br)c(Cl)c1F ?
[A] 2.47^[a]

[Q] Would you kindly share the measured LogP for CCOC(=O)C1(NC(=O)c2cc(Cl)c(Br)s2)CC1 ?
[A] 2.80^[a]

[Q] Would you kindly share the measured LogP for CCOC(=O)C(Cc1ccccc1)NC(=O)c1cc(Cl)c(Br)s1 (stereo not shown) ?
[A] 4.01^[a]

[Q] Would you kindly share the measured LogP for CCOC(=O)CNC(=O)c1cc(Cl)c(Br)s1 ?
[A] 2.59^[a]

[Q] Would you kindly share the measured LogP for COC(=O)C1(NC(=O)c2sc(Br)c(Cl)c2F)CC1 ?
[A] 2.72^[a]

[Q] Would you kindly share the measured LogP for COC(=O)C(NC(=O)c1sc(Br)c(C#N)c1Br)C1CC1 (stereo not shown) ?
[A] 3.02^[a]

[Q] Would you kindly share the measured LogP for COC(=O)C1(NC(=O)c2sc(C(F)F)c(Br)c2Br)CCC1 ?
[A] 3.35^[a]

[Q] Would you kindly share the measured LogP for O=C(O)CNC(=O)CNC(=O)c1cc(I)c(I)s1 ?
[A] 1.63^[a]

[Q] Would you kindly share the measured LogP for CCOC(=O)C1(NC(=O)c2cc(F)c(Br)s2)CCC1 ?
[A] 2.98^[a]

[Q] Would you kindly share the measured LogP for CCOC(=O)C(Cc1ccccc1)NC(=O)c1cc(C#N)c(Br)s1 (stereo not shown) ?
[A] 3.48^[a]

[Q] Would you kindly share the measured LogP for COC(=O)C(Cc1ccccc1)NC(=O)c1sc(Br)c(Br)c1F (stereo not shown) ?
[A] 4.06^[a]
